Attribute: self-cleavage
B1: LINE1-full (parent)
chain: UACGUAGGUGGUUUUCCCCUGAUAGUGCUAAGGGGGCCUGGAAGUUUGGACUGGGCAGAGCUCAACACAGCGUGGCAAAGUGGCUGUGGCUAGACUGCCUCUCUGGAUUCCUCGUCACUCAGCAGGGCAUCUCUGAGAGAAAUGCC

- Variants of: B1
- ASSAY_TEXT: self-cleavage, relative activity (ratio to wild type); higher = more cleavage; in vitro, sequencing; the parent is a self-cleaving ribozyme

// known answers, use as guide
SEQUENCE_CODE: UACGUAGGUGGUUUUCCCCUGAUAGUGCUAAGGGGGCCUGGAUGUUUGGACUGGGCAGAGCUCAACACAGCGUGGCAGAGUGGCUGUGGCUAGACUGCCUCUCUGGAUUCCUCGUCACUCAGCAGGGCAUCUCUGAGAGAAAUGCC
self-cleavage: 0.61
//
SEQUENCE_CODE: UACGUAGGUGGUUUUCCCAUGAUAGUGCUAAAGGGGCCUGGAAGUUUGGACUGGGCAGAGCUCAACACAGCGUGGCAAAGUGGCUGUGGCUAGACUGCCUCUCUGGAUUCCUCGUCACUCAGCAGGGCAUCUCUGAGAGAAAUGCC
self-cleavage: 0.91
//
SEQUENCE_CODE: UACGUAGGUGGUUUUCCCCUGAUAGUGCUAAGGGGGCCUGGAAGUUUGGACUGGGCAGAGCCCAACACAGCGUGGCAAAGUGGCUGUGGCUAGACUGCCUCUCUGGAUUCCUCGUCACUCAGCAGGGCAUCUCUGAGAGAAGUGCC
self-cleavage: 0.06
//
SEQUENCE_CODE: UACGUAGGUGGUUUUCCCCUGAUAGUGCUAAGGGGGCCUGGAAGUUUGGACUGGGCAGAGCCCAACACAGCGUGGCAAAGUGGCUGUGGCUAGCCUGCCUCUCUGGAUUCCUCGUCACUCAGCAGGGCAUCUCUGAGAGAAAUGCC
self-cleavage: 0.07
//
SEQUENCE_CODE: UACGUAGGUGGUUUUCCCCUGAUAGUGCUAAGGGGGCCUGGAAGUUUGGACUGGGCAGAGCUCAACACAGCGUGGCAAAAUGGCUGUGGCUAGGCUGCCUCUCUGGAUUCCUCGUCACUCAGCAGGGCAUCUCUGAGAGAAAUGCC
self-cleavage: 0.23
//
SEQUENCE_CODE: UACGUAGGUGGUUUUCCCCUGAUAGUGCUAAGGGGGCCUGAAAGUUUGGACUGGGCAGAGCUCAACACAGCGUGGCAAAGUGGCUGUGGCUAGACUGCCUCUCUGGAUUCCUCGUCACUCAGCAGGGCAUCUCUGUGAGAAAUGCC
self-cleavage: 1.53

Shift focus to the following entry.
Reported self-cleavage for UACGUAGGUGGUUUUCCCCUGAUAGUGCUAAGGGGGCCUGGAAGUUUGGACUGGGCAGAGCUCAACACAGCGUGGCAAAGUGGCUGUGGCUAGACUGCCUCUCUGGAUUCCUCGUCACUCAGCAGGGUAUCCCUGAGAGAAAUGCC was 1.37

All values here come from the RNAGym collection of RNA variant scans (doi:10.7554/elife.90254).
